src = patent US20240254246A1

Entries and their pEC50
tested.on: T1, human CD30L expressed on B16 cells (human, UniProt P32971 1-234)
T1 construct: whole, on cells; B16 cell line transfected to express human CD30L; also called B16-huCD30L; B16-rhCD30L
T1 sequence (looked up): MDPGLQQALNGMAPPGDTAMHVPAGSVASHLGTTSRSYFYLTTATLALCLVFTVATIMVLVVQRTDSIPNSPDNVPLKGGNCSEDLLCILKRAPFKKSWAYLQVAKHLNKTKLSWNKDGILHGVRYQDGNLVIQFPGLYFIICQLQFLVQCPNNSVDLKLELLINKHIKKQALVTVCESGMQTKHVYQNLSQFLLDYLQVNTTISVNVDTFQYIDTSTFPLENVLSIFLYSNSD
protocol.description: flow cytometry, binding to B16-rhCD30L cells
Just so you know, pEC50 here is -log10 of the concentration in molar units; reply with that number alone.

Look over these answered cases.
[[record]]
binder = "anti-CD30L antibody clone 2 germlined (antibody, V domains shown, also called germlined clone 2) VH: EVQLVESGGGLVQPGRSLRLSCAASGFNFDDYAMHWVRQAPGKGLEWVSGISWRSGNIGYADSVKGRFTISRDNAKNSLYLQMNSLRAEDTALYYCAKDKGIGFNWNYEGFDYWGQGTLVTVSS VL: DIQMTQSPSSLSASVGDRVTITCRASQGISNHLAWFQQKPGKAPKSLIYAASSLQSGVPSRFSGSGSGTDFTLTISSLQPEDFATYYCQQYVTYPLTFGGGTKVEIK"
readout_label = "pEC50"
experimental_value = 9.19

[[record]]
binder = "anti-CD30L antibody clone 1 (antibody, V domains shown, also called clone 1 parental) VH: QVQLQESGPGLVKPSETLSLTCTVSGGSISGYYWSWIRQPPVKGLEWIGYIFYSGYTKYNPSLKSRVTISVDTSKNQFSLKLSSVTAADTAVYYCARDRWDFDYWGQGALVTVSS VL: AIQMTQSPSYLSASVGDRVTIACRASQGIRNNLGWYQQKPGKAPKLLIYAESSLQSGVPSRFSGSGSGTDFTLTISSLQPEDFATYYCLQDFNYPYTFGQGTKLEIK"
readout_label = "pEC50"
experimental_value = 8.95

[[record]]
binder = "anti-CD30L antibody clone 2 (antibody, V domains shown, also called clone 2 parental) VH: EVQLVESGGGLVQPGRSLRLSCAASGFNFDDYAMHWVRQAPGKGLEWVSGISWRSGNIGYAGSVKGRFTISRDNAKNSLYLQMNSLRPEDSALYYCAKDKGIGFNWNYEGFDYWGQGTLVTVSS VL: DIQMTQSPSSLSASVGDRVTITCRASQGISNHLAWFQQKPGKAPKSLIYAASSLQSGVPSKFSGSGSGTDFTLTISSLQPEDFATYYCQQYVTYPLTFGGGTKVEIK"
readout_label = "pEC50"
experimental_value = 9.13


Lab note: next binder to report on.
Record request: pEC50 value, item anti-CD30L Reference 1 antibody (antibody, human IgG1, lambda, V domains shown) VH: QVQLQESGPGLVKPSETLSLTCTVSGGSISSYIWSWIRQPAGKGLEWIGRIYASGNTNYNPSLKSRVTISVDTSKNQFSLKLSSMTAADTAVYYCARDYRVAGTYYYYYGLDVWGQGTTVTVSS VL: QSALTQPASVSGSPGQSITISCTGTSSDVGVYDYVSWYQQHPGKAPKLMIYEVSNRPSGVSNRFSGSKSGNTASLTISGLQTEDEADYYCSSYTSRSTWVFGGGTKLTVLG 8.95
